Values compiled from patent US6632977B2.

Molecular target: δ receptor (Mus musculus)
Assay: biochemical
Conditions: Kd, [3H]NTI; μ receptor gene line, wild +/+
REPORTED ENDPOINT: Kd (pM)

Oc1ccc2c3c1O[C@H]1c4[nH]c5ccccc5c4C[C@@]4(O)[C@@H](C2)N(CC2CC2)CC[C@]314: 68

###

Target: δ receptor (Mus musculus, UniProt P32300)
Sequence (P32300 whole entry): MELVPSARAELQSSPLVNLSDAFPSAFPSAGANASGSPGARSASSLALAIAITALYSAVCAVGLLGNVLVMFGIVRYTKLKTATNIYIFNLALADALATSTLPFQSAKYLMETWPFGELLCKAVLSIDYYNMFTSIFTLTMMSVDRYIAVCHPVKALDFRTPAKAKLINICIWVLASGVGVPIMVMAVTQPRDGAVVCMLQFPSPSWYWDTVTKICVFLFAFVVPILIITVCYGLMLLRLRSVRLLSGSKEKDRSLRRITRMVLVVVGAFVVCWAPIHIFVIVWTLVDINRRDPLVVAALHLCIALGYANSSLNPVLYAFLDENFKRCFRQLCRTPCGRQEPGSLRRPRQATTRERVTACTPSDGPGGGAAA
Assay: biochemical
Settings: NTI Kd, kappa receptor gene line, heterozygous +/−
REPORTED ENDPOINT: Kd (nM)

Oc1ccc2c3c1O[C@H]1c4[nH]c5ccccc5c4C[C@@]4(O)[C@@H](C2)N(CC2CC2)CC[C@]314: 0.109

###

Biological target: δ receptor (Mus musculus)
Test: biochemical
Conditions: NTI Kd, kappa receptor gene line, wild +/+
pKd: −log10 of the molar value.
REPORTED ENDPOINT: pKd

Oc1ccc2c3c1O[C@H]1c4[nH]c5ccccc5c4C[C@@]4(O)[C@@H](C2)N(CC2CC2)CC[C@]314 [NTI, naltrindole]: 9.97

###

Target: δ receptor (Mus musculus, UniProt P32300)
Experiment: biochemical
Conditions: Kd, [3H]NTI; μ receptor gene line, heterozygous +/−
pKd: −log10 of the molar value.
REPORTED ENDPOINT: pKd

Oc1ccc2c3c1O[C@H]1c4[nH]c5ccccc5c4C[C@@]4(O)[C@@H](C2)N(CC2CC2)CC[C@]314: 10.12
